Target: Glucose transporter (Leishmania mexicana)
Assay: ST_JUDE_LEISH: Cytotoxicity at 2uM final concentration against transgenic Leishmania Mexicana promastigotes LmGT2 that are glucose transport deficient and complemented with the L. Mexicana glucose transporter 2. Activity is measured by DNA content using SYBR green in vitro
Type: functional
result.type: inhibition
Could you kindly put the unit after your number?

Input: Enter reported inhibition observed with Glucose transporter (Leishmania mexicana) for O=C(CNC(=O)c1ccc(O)cc1)Nc1ccc(-c2cccc(-c3nc4cc(C(F)(F)F)ccc4[nH]3)c2)cc1
Output: 8.38%

Input: Short answer please: inhibition, Glucose transporter (Leishmania mexicana), entry Oc1ccccc1CN1CCN(C(c2ccccc2)c2ccccc2)CC1
Output: -0.06%

Input: Missing value: inhibition, Glucose transporter (Leishmania mexicana), entry CN1CCC(C(=O)Nc2cccc(-c3ccc(-c4nc5ccccc5[nH]4)cc3)c2)CC1 . Fill in?
Output: 1.04%

More entries:
Input: Hello, I am looking for reported inhibition with Glucose transporter (Leishmania mexicana) for COc1cc(NC(=O)N2CCc3ccc(OCCC4CCCN4C)cc32)cc(C(F)(F)F)c1 (stereo not given) . Could you help?
Output: -0.48%

Input: Request body: readout inhibition, system Glucose transporter (Leishmania mexicana), query O=C(Nc1cccc(N2CCC(NCc3cccnc3)CC2)c1)c1cccc(C(F)(F)F)c1 . Return the value.
Output: -0.6%

Input: Recorded inhibition for O=C(Nc1cccc(-c2cccc(-c3nc4ccccc4[nH]3)c2)c1)c1ccoc1 with Glucose transporter (Leishmania mexicana), please?
Output: 3.82%

Input: Please tell me: inhibition of O=C(/C=C/c1ccc(Cl)c(Cl)c1)NC1CCC(CN2CCC(c3nc4cccnc4[nH]3)CC2)CC1 (stereo not given) , system Glucose transporter (Leishmania mexicana)?
Output: -2.89%

Input: Please tell me: inhibition of CCN(CCCN1CCCCC1)c1cc(C)nc(Nc2ccc(C(F)(F)F)cc2)n1 , system Glucose transporter (Leishmania mexicana)?
Output: 3.9%

Input: Hello, I am looking for reported inhibition with Glucose transporter (Leishmania mexicana) for CCN(CC)CCN(Cc1ccc(-c2ccc(C(F)(F)F)cc2)cc1)C(=O)Cn1c(CCc2c(F)cc(F)cc2F)nc(=O)c2ccccc21 . Could you help?
Output: 0.56%

Input: # value lookup — system Glucose transporter (Leishmania mexicana), readout inhibition, item Cc1cc(C(=O)Nc2ccc(-c3ccccc3)cc2)no1
Output: 0.52%

###

Biological target: Glucose transporter (Leishmania mexicana) (UniProt O61059)
Assay: ST_JUDE_LEISH: Cytotoxicity at 2uM final concentration against transgenic Leishmania Mexicana promastigotes LmGT2 that are glucose transport deficient and complemented with the L. Mexicana glucose transporter 2. Activity is measured by DNA content using SYBR green in vitro
Type: functional
result.type: inhibition (%)
Answer in %, number only, no unit symbol.

Input: Look up inhibition for this molecule: CCc1c(CCNCCCCCCNCCc2ccccc2)ccc(OC)c1OC
Output: 2.63

Input: Name the reported inhibition value associated with the molecule Cc1cc(N(C)C2CCN(C)C2)nc(Nc2ccccc2Cl)n1 (configuration not stated)
Output: 2.94

Input: # query: inhibition of entry CC(C)C[C@H](NC(=O)c1cc(-c2ccc(C(C)(C)C)cc2)no1)C(=O)O.CC(C)C[C@H](NC(=O)c1conc1-c1ccc(C(C)(C)C)cc1)C(=O)O
Output: 0.84

Input: Value lookup for inhibition; key = COc1ccc(C)c(Nc2ccnc(Nc3ccc(-c4cnc[nH]4)cc3)n2)c1
Output: 3.29

Input: Form field: reported inhibition of O=C(C=Cc1ccc(Cl)c(Cl)c1)NCCCCCN1CCCC(CCCNS(=O)(=O)c2cccc(C(F)(F)F)c2)C1 (configuration not stated)
Output: 2.4

Input: What does the data say about its inhibition? Entry: NC1=NC(c2ccccc2)(c2ccccc2)C(=O)N1Cc1ccc(-c2cccnc2)cc1
Output: 0.52

Next:
Input: // query inhibition value for entry CN(c1ccc(NC(=O)Nc2cc(C(F)(F)F)ccc2F)cc1)c1ccnc(NCCN2CCOCC2)n1
Output: 0.14

###

Biological target: Hexose transporter 1 (Plasmodium falciparum)
Experiment: ST_JUDE_LEISH: Cytotoxicity at 2uM final concentration against transgenic Leishmania Mexicana promastigotes LmPfHT that are glucose transport deficient and complemented with the Plasmodium falciparum hexose transporter. Activity is measured by DNA content using SYBR green in vitro
Assay type: functional
result.type: inhibition

Input: inhibition for CC(C)c1ccc(CN(C)CCCCNC(=O)c2ccc(NC(=O)c3ccc(Cl)cc3)cc2)cc1 ?
Output: -0.96%

Input: Name the recorded inhibition for COc1ccc(CNC2CCN(C)CC2)cc1-c1ccc(S(=O)(=O)NCc2ccccc2)c(F)c1 .
Output: -0.53%

Input: Please give the measured inhibition for this compound: CCOC(=O)C(CO)NC(=O)c1ccc([N+](=O)[O-])o1 (stereo unspecified)
Output: 2.06%

Input: Reported inhibition for COc1cc2c(cc1OC)CN(CCCCc1ccc(NC(=O)c3cc(Cl)cc(Cl)c3)cc1)CC2 : what is it?
Output: 4.95%

Input: Which value of inhibition has been reported for Cc1nc(N)nc(N)c1OCc1cccc2c1ccc1ccccc12 in the records?
Output: 6.28%

Next:
Input: Fill in: inhibition of COc1ccc(-c2nc3c(N)nc(N)nc3nc2-c2ccccc2Cl)cc1.COc1ccc(-c2nc3nc(N)nc(N)c3nc2-c2ccccc2Cl)cc1 is ___
Output: 10.5%

###

Biological target: Glucose transporter (Leishmania mexicana) (UniProt O61059)
Assay: ST_JUDE_LEISH: Cytotoxicity at 2uM final concentration against transgenic Leishmania Mexicana promastigotes LmGT2 that are glucose transport deficient and complemented with the L. Mexicana glucose transporter 2. Activity is measured by DNA content using SYBR green in vitro
Assay type: functional
inhibition reference
Quick note: number first, unit second.

Consider the worked cases shown below.
Input: Please report the recorded inhibition for O=C(NCCCN1CCC(N2CCCCC2)CC1)c1ccc2nc(N3CCCCC3)sc2c1 .
Output: 8.02%

Input: What inhibition value was documented for this molecule, CC(=O)Nc1cc(C(=O)Nc2cccc(-c3cccc(-c4nc5cc(C(F)(F)F)ccc5[nH]4)c3)c2)ccc1C ?
Output: 1.84%

Input: // inhibition lookup, key: Cn1nc(-c2ccccc2F)c2cc(C(=O)Nc3cccnc3)sc21
Output: 2.9%

Input: Quick one: inhibition of CCC1N=C(N)N=C(N)N1OCCCOc1c(Cl)cc(Cl)cc1Cl (stereo not drawn) ?
Output: 3.44%

Input: What measured inhibition goes with COc1cc(-c2ccccc2)ccc1C(=O)Nc1ccc2c(c1)N(C)CCC2 ?
Output: 3.05%

Others:
Input: Requested field: inhibition. Item: O=C(Nc1cccc(C(F)(F)F)c1)c1ccc(S(=O)(=O)NCC2CCCN2CC2CCCCC2)cc1 (stereo not drawn)
Output: -0.18%

Input: Need inhibition, item O=C(/C=C/c1ccc(Cl)cc1Cl)NCCCCCN1CCC(c2c[nH]c3ccccc23)CC1
Output: 1.57%

###

Target: Glucose transporter (Leishmania mexicana)
Assay: ST_JUDE_LEISH: Cytotoxicity at 2uM final concentration against transgenic Leishmania Mexicana promastigotes LmGT2 that are glucose transport deficient and complemented with the L. Mexicana glucose transporter 2. Activity is measured by DNA content using SYBR green in vitro
Type: functional
The following compounds are shown together with reported inhibition values.
# number only, unit % dropped from output

Input: Quick one: inhibition of Cc1cc(N2CCCC2)nc(Nc2ccc(NC(=O)C(C)Oc3ccccc3)cc2)n1 (stereo unspecified) ?
Output: 7.47

New cases:
Input: # query: inhibition of entry COc1cc(NC(=O)c2ccc(-c3ccc(C(C)=O)cc3)s2)ccc1OCCN1CCCC1
Output: 1.4

Input: Using the record for CN1CCCC1CCNCc1ccc(-c2ccc(CNCCc3ccccc3)cn2)cc1 (stereo unspecified) , report its inhibition.
Output: 4.27

Input: Fill in the blank: the reported inhibition of CCNC(=O)N1CCc2ccc(Oc3nc(NCc4ccccc4OC)ncc3C)cc2CC1 is ____.
Output: 2.64

Input: Fill in: inhibition of OC[C@H]1CCCN1CC#Cc1cc2c(Nc3ccc(OCc4cccc(F)c4)c(Cl)c3)ncnc2s1 is ___
Output: 2.65

Input: Returns the measured inhibition for the input compound. Input: O=C(/C=C/c1ccc(Cl)c(Cl)c1)NC1CCN(CCCNC(=O)c2cccc(Cl)c2)CC1
Output: 7.01

###

Molecular target: Hexose transporter 1 (Plasmodium falciparum) (UniProt O97467)
Assay: ST_JUDE_LEISH: Cytotoxicity at 2uM final concentration against transgenic Leishmania Mexicana promastigotes LmPfHT that are glucose transport deficient and complemented with the Plasmodium falciparum hexose transporter. Activity is measured by DNA content using SYBR green in vitro
Type: functional
result.type: inhibition
Your answer should be a number followed by the unit of measure.

Before answering, review these 4 worked examples.
Input: Checklist item: inhibition tested on Hexose transporter 1 (Plasmodium falciparum) (UniProt O97467), entry O=[N+]([O-])c1cccc(C=NNc2nc(=Nc3ccccc3)[nH]c(=Nc3ccccc3)[nH]2)c1 , value?
Output: 7.8%

Input: Identify the measured inhibition of O=C(CCc1c[nH]cn1)Nc1ccc(-c2ccc(-c3nc4ccccc4[nH]3)cc2)cc1 for Hexose transporter 1 (Plasmodium falciparum) (UniProt O97467).
Output: 16.7%

Input: Give inhibition (Hexose transporter 1 (Plasmodium falciparum) (UniProt O97467)) of the following compound: O=C(C1CC1c1ccccc1)N(Cc1ccc(-c2ccc(CNCCc3ccccc3)cc2)cc1)C1CCNCC1 (stereo not given)
Output: 8.35%

Input: Short answer please: inhibition, Hexose transporter 1 (Plasmodium falciparum) (UniProt O97467), entry Oc1ccc(OCc2ccccn2)cc1
Output: 6.09%

Further cases:
Input: Form: Entry = CN1C(=O)C(=NN=C(S)N2CCOCC2)c2ccccc21 | System = Hexose transporter 1 (Plasmodium falciparum) (UniProt O97467) | inhibition = ____
Output: 63.9%
